Ref: paper PMC9189845

Tested on: MES-SA/Dx5 cells
Method description: PrestoBlue viability assay, MES-SA/Dx5 cells (MDR, P-gp positive)
Measurement parameters: Homo sapiens, MES-SA/Dx5, 72 h, read-out: IC50 / μM MES-SA/Dx5, absence of TQ; 72 h incubation
Examples of molecules with documented IC50 follow.
Unit µM implied. Number only.

Guide cases for IC50, answers given:
Oc1c(C(c2ccccn2)N2CCCC2)cc(Cl)c2cccnc12 (centres unmarked) :: 6.3
CCOCc1cc(CN2CCC(C)CC2)c(O)c2ncccc12 :: 0.47

// switching to the query molecule
## Input Tell me the measured IC50 of Oc1ccc(CN2CCN(c3ccccc3)CC2)c2cccnc12 , please.
## Output 4.19

###

Test system: A431 cells
Method description: PrestoBlue viability assay, A431 cells
Measurement parameters: Homo sapiens, A-431, 72 h, read-out: IC50 / µM A431, 72 h incubation
Readout kind: IC50 (µM)
Unit µM implied. Number only.

OCCN(CCO)Cc1cc(Cl)c2cccnc2c1O :: 73.6
Oc1c(CN2CCCC2)cc(Br)c2cccnc12 :: 4.32
CC(C)OCc1cc(CN2CCN(c3ccccc3)CC2)c(O)c2ncccc12 :: 7.35
Oc1c(CN2CCc3ccccc3C2)ccc2cccnc12 :: 4.74
CCN(CC)Cc1cc(Cl)c2cccnc2c1O :: 9.29
Oc1c(CN2CCOCC2)ccc2cccnc12 :: 14.5

## Input Tell me the measured IC50 of Oc1c(CN2CCCCC2)ccc2cccnc12 , please.
## Output 7.3

## Input Tell me the measured IC50 of CCCOCc1cc(CN2CCN(C)CC2)c(O)c2ncccc12 , please.
## Output 19.9

## Input Tell me the measured IC50 of COCc1cc(CN2CCN(c3ccccc3)CC2)c(O)c2ncccc12 , please.
## Output 9.99

## Input Tell me the measured IC50 of Oc1c(CN2CCCCC2)cc(Cl)c2cccnc12 , please.
## Output 6.67

## Input Tell me the measured IC50 of CCOCc1cc(CN2CCN(c3ccccc3)CC2)c(O)c2ncccc12 , please.
## Output 6.24

## Input Tell me the measured IC50 of CC(C)OCc1cc(CN2CCCCC2)c(O)c2ncccc12 , please.
## Output 7.53

## Input Tell me the measured IC50 of CCOCc1cc(CN2CCN(C)CC2)c(O)c2ncccc12 , please.
## Output 66.6

## Input Tell me the measured IC50 of Oc1c(CN2CCOCC2)cc(Br)c2cccnc12 , please.
## Output 9.3

## Input Tell me the measured IC50 of COCc1cc(CN2CCN(C)CC2)c(O)c2ncccc12 , please.
## Output 77.2

## Input Tell me the measured IC50 of O=[N+]([O-])c1cc(CN(CCO)CCO)c(O)c2ncccc12 , please.
## Output 9.79

## Input Tell me the measured IC50 of Oc1c(CN2CCCCCC2)cc(Cl)c2cccnc12 , please.
## Output 5.57

## Input Tell me the measured IC50 of CCOCc1cc(CN2CCOCC2)c(O)c2ncccc12 , please.
## Output 24.7

## Input Tell me the measured IC50 of CCCCOCc1cc(CN2CCN(C)CC2)c(O)c2ncccc12 , please.
## Output 11.2

## Input Tell me the measured IC50 of Oc1c(CN2CCN(c3ccccn3)CC2)cc(Cl)c2cccnc12 , please.
## Output 9.41

## Input Tell me the measured IC50 of Oc1c(CN2CCN(c3ccccc3)CC2)cc(Cl)c2cccnc12 , please.
## Output 7.38

## Input Tell me the measured IC50 of CC(C)OCc1cc(CN2CCOCC2)c(O)c2ncccc12 , please.
## Output 13.2

## Input Tell me the measured IC50 of CCN(CC)Cc1ccc2cccnc2c1O , please.
## Output 14.8

## Input Tell me the measured IC50 of Cc1ccccc1N1CCN(Cc2ccc(O)c3ncccc23)CC1 , please.
## Output 23.3

## Input Tell me the measured IC50 of Oc1c(CN2CCCC2)cc(Cl)c2cccnc12 , please.
## Output 7.45

## Input Tell me the measured IC50 of CCOCc1cc(CN2CCCC2)c(O)c2ncccc12 , please.
## Output 35.2
